Taken from the pKa sets of Baltruschat and Czodrowski (2020).

Entries and their measured pKa follow.
details: acidic group
experimental_endpoint: pKa

| molecule | measurement |
| --- | --- |
| Nc1cc(O)ccc1O | 10.1 |
| Oc1[nH+]ccc2cccnc12 | 2.64 |
| COC(=O)[n+]1ccc(N)cc1 | 9.15 |
| O=[N+]([O-])c1n[nH]c(Oc2ccccc2)n1 | 4.2 |
| CCOC(=O)C1CCCCC1=O (configuration not stated) | 11.9 |
| Cc1cccc(C(=O)[O-])c1O | 14.4 |
| [NH3+]CCC(=O)N[C@@H](Cc1c[nH+]c[nH]1)C(=O)O | 2.63 |
| COC(=O)c1ccccc1-n1nc(O)cc1C | 12.3 |
| O=C(Cc1ccccc1)NO | 9.26 |
| Sc1ccc(Cl)c(Cl)c1 | 5.48 |
| NS(=O)(=O)c1ccc(Cl)cc1 | 9.5 |
| O=C(O)C=C=Cc1ccccc1 | 3.7 |
| O=C(O)c1ccc(/C=C/[N+](=O)[O-])cc1 | 3.94 |
| O=C(O)CCc1ccccc1 | 4.59 |
| Oc1ccnc([Se-])[nH+]1 | 7.18 |
| CCC[NH2+]C(C)C(=O)O (configuration not stated) | 2.21 |
| CCC(C)(O)c1cnc(CC(C)C)c(O)[n+]1[O-] (configuration not stated) | 5.02 |
| Cc1cc(I)c(O)c(I)c1 | 6 |
| O=C(O)CSc1ccccc1[N+](=O)[O-] | 3.18 |
| Nc1ccc(S(=O)(=O)Nc2ccccn2)cc1 | 8.51 |
| Cc1ccccc1NCCS | 9.6 |
| CC(C)(S)CN | 11 |
| O=[N+]([O-])c1cccc(/C=N\O)c1 | 10.7 |
| O=C(O)[C@H]1C[C@@H]1Cl | 4.12 |
| CC(C)(C)C(=O)NO | 9.59 |
| C/C(=N\O)C(=O)NO | 7.74 |
| Oc1nc2cc3ccccc3cc2[nH]1 | 11.6 |
| O=C(NO)C1CCCCC1 | 9.87 |
| COC(=O)[C@H]1[C@@H]2Cc3c4[nH]c5ccccc5c4cc[n+]3C[C@H]2CC[C@H]1O | 10.7 |
| CCC(=O)c1nc(C(=O)O)cs1 | 3.7 |
| Cc1ccc(C(=O)Oc2ccccc2)c(O)c1 | 9.44 |
| FC(F)(F)c1ncnc2nc[nH]c12 | 7.35 |
| CC1=NS(=O)(=O)c2cnccc2N1 | 7.6 |
| CC(C)P(=O)(O)C(C)C | 3.56 |
| CCC(C)CC(=O)O (configuration not stated) | 4.84 |
| Cc1n[nH]c(C(=O)O)c1[N+](=O)[O-] | 2.26 |
| O=C1C=CC(=O)/C(=N/O)N1 | 8.4 |
| CN(C)c1ccc(O)cc1 | 10.2 |
| CCCCS(=O)O | 2.2 |
| C(CSCCc1nnn[nH]1)SCCc1nnn[nH]1 | 5 |
| Oc1ccc2ccccc2c1 | 9.6 |
| O=CC1c2ccccc2-c2ccccc21 | 7.4 |
| Cn1cnc2nc([O-])nc(O)c21 | 10.6 |
| O=C1/C(=N\O)CC/C1=N\O | 7.95 |
| CNCC(N)=O | 8.35 |
| O=[N+]([O-])c1ccccc1-c1nnn[nH]1 | 2.98 |
| CCC/C=C/C(=O)O | 4.71 |
| C[NH+](C)Cc1ccc(NC(=O)/C=N/O)cc1 | 8.43 |
| CC(=O)[n+]1cccc(C#N)c1 | 1.62 |
| CC(C)(C)c1cc(/C=C/Cl)cc(C(C)(C)C)c1O | 11.8 |
| CC(C)Cc1cnc(CC(C)C)c(O)[nH+]1 | 1.7 |
| N#CCCC(C(=O)O)c1ccccc1 (configuration not stated) | 3.92 |
| O=[N+]([O-])c1ccc(O)c(C[NH+]2CCOCC2)c1 | 5.61 |
| [NH3+][C@H]1CC(=O)NC1=O | 5.9 |
| Cc1ccc2cccc(O)c2n1 | 10.1 |
| CC(C)Oc1ccccc1C(=O)O | 4.24 |
| Cc1nn(-c2ccccc2)cc1C(=O)O | 4.58 |
| O=[N+]([O-])c1cc(C[NH+]2CCOCC2)c(O)c2ccccc12 | 3 |
| Cc1ccc(NC(=S)c2ccc(Cl)cc2)cc1 | 11.2 |
| NC(=O)/C(=N\O)c1ccccc1 | 10.1 |
| Cc1cc(O)c(C(C)C)cc1Nc1ccc([O-])cc1 | 10.8 |
| O=C(O)/C=C\c1cccc([N+](=O)[O-])c1 | 3.63 |

###

conditions: basic group
Assign Y whenever pKa does not fall below 7; assign N whenever it does.

| compound | category_label |
| --- | --- |
| CCSC(=O)c1cccc(Br)c1 | N |
| CCCNCC(=O)[O-] | Y |
| NC(=O)C(N)Cc1c[nH]cn1 (stereo not given) | Y |
| O=C1CSc2ncnc(N3CCOCC3)c2N1 | N |
| OC[C@@H]1O[C@H](n2cnc3c([S-])ncnc32)[C@@H](O)[C@H]1O | Y |
| Oc1ccccc1-c1ccccn1 | N |
| Cc1ccnc([S-])n1 | Y |
| Cc1cc([O-])[n+](C)c([O-])n1 | Y |
| N=C(N)Nc1ccccc1 | Y |
| COc1c(CN)cc(C)cc1CN | Y |
| CC1(C)CCC(C2CCC(C)(C)N2)N1 (stereo not given) | Y |
| CCCCCCNc1ccccc1 | N |
| Cc1c(C(=O)[O-])sc2cc(Cn3ccnc3)ccc12 | N |
| CC(=O)n1cccn1 | N |
| C#CC(C)(C)N(CC)C(C)(C)C | Y |
| CN(C)Cc1cc(Br)ccc1[O-] | Y |
| [NH3+]Cc1cccnc1 | N |
| Cc1cn2nc(-c3ccccc3)cc(C)c2n1 | N |
| CC(C)([NH3+])C(N)=S | N |
| C[NH+](C)CCCNc1c2ccccc2nc2c(Cl)ccc([N+](=O)[O-])c12 | N |
| O=CC1c2ccccc2-c2ccccc21 | N |
| Cc1cc2c(C)ccnc2c2ncccc12 | N |
| Cc1ccc([N+](=O)[O-])c2c(NCCC[NH+](C)C)cc(-c3ccccc3)nc12 | N |
| CN(C)c1ccc2cc3ccc([NH+](C)C)cc3[nH+]c2c1 | N |
| Cc1cc(C)n(-c2cc(C)n(C)n2)n1 | N |
| Cc1[nH]cnc1CSCCNC(=[NH2+])NCCCc1c[nH]cn1 | Y |
| CCN(CC)CCOCCN(CC)CC | Y |
| Cc1nc2ncccc2[nH]1 | N |
| COC(=O)c1cccc(N)c1 | N |

###

Entries and their measured pKa follow.
settings: acidic group

| test_smiles | pKa |
| --- | --- |
| ONc1ccccc1 | 10.7 |
| CC(=O)c1ccccc1NN=C(C(=O)c1ccccc1)C(=O)c1ccccc1 | 9.2 |
| O=C(O)C[NH+](CCNS(=O)(=O)c1ccccc1)CC(=O)O | 2.1 |
| NCc1ccccc1S(N)(=O)=O | 10.1 |
| C=C(C)/C=C(\C)O | 10.4 |
| C[n+]1c2ccccc2cc2c(N)cccc21 | 10 |
| Cc1cc[n+](O)cc1 | 1.29 |
| c1coc(CSc2ncnc3nc[nH]c23)c1 | 8.42 |
| CC1=NS(=O)(=O)c2cccnc2N1 | 7.64 |
| O=C(NO)[C@@H]1[C@H](C(=O)NO)[C@@H]2CC[C@H]1O2 | 9.3 |
| NNC(=O)C(F)(F)C(F)(F)C(F)(F)F | 8.02 |
| NC(=O)C#CC#C/C=C/C(=O)O | 3.52 |
| Cc1cc(C(C)C)cc(C)c1O | 10.9 |
| C=CCOc1ccc(C(=O)O)cc1 | 4.45 |

###

conditions: basic group
experimental_endpoint: pKa

| test_smiles | measurement |
| --- | --- |
| Cc1cnc(C)cn1 | 1.95 |
| CCN(CC)c1nnc(-c2ccccc2)s1 | 3.09 |
| CCCC(=N)OCC | 7.08 |
| Nc1ccccc1N | 4.43 |
| CO[C@H]1CC=C2CCN3CC[C@H](CO)/C(=C\CO)[C@]23C1 | 8.42 |
| C/C(N)=N/N(C)C | 10 |
| O=[N+]([O-])c1cccc2nccc(NCCCO)c12 | 7.06 |
| COc1ccc2c(c1OC(C)=O)[C@]13CCN(C)[C@H](C2)[C@@H]1CC[C@H](OC)C3 | 9.31 |
| CC(C)([Se-])CN | 10.9 |
| CCOC(=O)[C@H](C)N | 7.8 |
| CCOC(=O)c1cc(-c2ccccc2)nnc1NCC[NH+]1CCOCC1 | 1.5 |
| C[NH+](C)CCCCNc1ccnc2cccc([N+](=O)[O-])c12 | 6.71 |
| CN(C)CCCC(=O)Oc1ccccc1 | 9.7 |
| Nc1nc(N)c2[nH]c(N)nc2n1 | 6.23 |
